- SYSTEM NAME: 11-beta-hydroxysteroid dehydrogenase 1 (Homo sapiens, UniProt P28845)
- METHOD NOTES: Inhibition of 11beta-HSD1 in human liver microsomes using [3H]-cortisone as substrate assessed as formation of cortisol after 60 to 90 mins by radiometric analysis
- Design: species or system Microsome
- Sequence (P28845 whole entry): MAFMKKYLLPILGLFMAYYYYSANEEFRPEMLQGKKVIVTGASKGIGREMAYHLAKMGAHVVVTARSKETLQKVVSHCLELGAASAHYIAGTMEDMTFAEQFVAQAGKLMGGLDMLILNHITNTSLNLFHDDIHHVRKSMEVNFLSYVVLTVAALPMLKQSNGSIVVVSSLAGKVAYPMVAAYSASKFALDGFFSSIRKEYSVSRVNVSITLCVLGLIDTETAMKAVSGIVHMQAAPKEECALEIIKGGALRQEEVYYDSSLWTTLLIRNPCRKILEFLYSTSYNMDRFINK
PROPERTY MEASURED: IC50 (µM)

Exam item: Suppose we examine the molecule "O=C1/C(=C/c2cccc(Br)c2)CC/C1=C\c1cccc(Br)c1" ; what IC50 value has been reported?
Marked response: 3.51

Exam item: Follow-up item: "O=C(/C=C/c1ccc(O)cc1)/C=C/c1ccc(O)cc1"
Marked response: 4.42

Exam item: Follow-up item: "O=C1/C(=C/c2ccc(O)cc2)CCC/C1=C\c1ccc(O)cc1"
Marked response: 1.94

1. O=C1/C(=C/c2ccc(F)cc2)CCC/C1=C\c1ccc(F)cc1
2. O=C(/C=C/c1ccccc1Br)/C=C/c1ccccc1Br
Exam item: Sort 1 and 2 by IC50 descending and give the first. State your choice using its label.
Marked response: 1
(1: 2.97 µM, 2: 0.529 µM)

----------
- SYSTEM NAME: 11-beta-hydroxysteroid dehydrogenase 1 (Rattus norvegicus)
- Sequence (P16232 whole entry): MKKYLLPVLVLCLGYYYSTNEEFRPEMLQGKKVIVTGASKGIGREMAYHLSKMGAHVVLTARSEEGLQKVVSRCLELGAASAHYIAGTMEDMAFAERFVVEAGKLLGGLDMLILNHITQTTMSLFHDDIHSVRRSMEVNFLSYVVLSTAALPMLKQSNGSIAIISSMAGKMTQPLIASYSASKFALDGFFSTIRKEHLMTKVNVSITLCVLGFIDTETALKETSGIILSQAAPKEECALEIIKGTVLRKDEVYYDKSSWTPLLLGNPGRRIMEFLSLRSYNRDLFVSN
- METHOD NOTES: Inhibition of 11beta-HSD1 in rat testis microsomes using [3H]-11-DHC as substrate assessed as formation of CORT after 60 to 90 mins by radiometric analysis
- Set-up: species or system Microsome
PROPERTY MEASURED: IC50 (µM)

Exam item: Suppose we examine the compound "O=C(/C=C/c1ccccc1Br)/C=C/c1ccccc1Br" ; what IC50 value has been reported?
Marked response: 0.288

Exam item: Follow-up item: "COc1cc(/C=C/C(=O)CC(=O)/C=C/c2ccc(O)c(OC)c2)ccc1O"
Marked response: 4.12

Exam item: Follow-up item: "O=C1/C(=C/c2ccccc2Br)CC/C1=C\c1ccccc1Br"
Marked response: 2.88

Exam item: Follow-up item: "COc1cc(/C=C/C(=O)/C=C/c2ccc(O)c(OC)c2)ccc1O"
Marked response: 16.1

Exam item: Follow-up item: "O=C1/C(=C/c2cccc(Br)c2)CC/C1=C\c1cccc(Br)c1"
Marked response: 0.599

Exam item: Follow-up item: "O=C1/C(=C/c2ccc(F)cc2)CCC/C1=C\c1ccc(F)cc1"
Marked response: 13.5

Exam item: Follow-up item: COc1cc(/C=C2\CCC/C(=C\c3ccc(OC4CCCCO4)c(OC)c3)C2=O)ccc1OC1CCCCO1 (centres undefined)
Marked response: 65.4

a. O=C1/C(=C/c2ccccc2Br)CCC/C1=C\c1ccccc1Br
b. O=C1/C(=C/c2ccc(F)cc2)CC/C1=C\c1ccc(F)cc1
Exam item: Problem: Given the entries a and b , determine which has the lower reported IC50. State your choice using its label.
Marked response: a
(a: 0.218 µM, b: 22 µM)

----------
- SYSTEM NAME: 11-beta-hydroxysteroid dehydrogenase 1 (Rattus norvegicus) (UniProt P16232)
- Sequence (P16232 whole entry, looked up): as the sequence (P16232 whole entry) above
- METHOD NOTES: Inhibition of 11beta-HSD1 in Sprague-Dawley rat leydig cells […] relative to control
- MEASUREMENT PARAMETERS: 100 uM
PROPERTY MEASURED: inhibition (%)

Previously resolved entries follow.
Exam item: Suppose we examine the compound "C=CCOc1ccc(/C=C/C(=O)/C=C/c2ccc(OCC=C)c(OC)c2)cc1OC" ; what inhibition value has been reported?
Marked response: 18

Exam item: Follow-up item: "COc1cc(/C=C/C(=O)/C=C/c2cc(OC)c(OC)c(OC)c2)cc(OC)c1OC"
Marked response: 5

Exam item: Follow-up item: COc1cc(/C=C2\CC/C(=C\c3ccc(OC4CCCCO4)c(OC)c3)C2=O)ccc1OC1CCCCO1 (stereo unspecified)
Marked response: 18

Exam item: Follow-up item: "C=CCOc1ccc(/C=C2\CCC/C(=C\c3ccc(OCC=C)cc3)C2=O)cc1"
Marked response: 8

Exam item: Follow-up item: "CCOc1ccc(/C=C2\CC/C(=C\c3ccc(OCC)cc3)C2=O)cc1"
Marked response: 27

A. O=C1/C(=C/c2ccc(OC3CCCCO3)cc2)CC/C1=C\c1ccc(OC2CCCCO2)cc1 (stereo unspecified)
B. C=CCOc1ccc(/C=C2\CCC/C(=C\c3ccc(OCC=C)c(OC)c3)C2=O)cc1OC
Exam item: Problem: Given the entries A and B , determine which has the lower reported inhibition. State your choice using its label.
Marked response: B
(B: 6%, A: 22%)

----------
- SYSTEM NAME: 11-beta-hydroxysteroid dehydrogenase 1 (Homo sapiens, UniProt P28845)
- METHOD NOTES: Inhibition of 11beta-HSD1 in human liver microsomes using [3H]-cortisone as substrate assessed as formation of cortisol at 100 uM after 60 to 90 mins by radiometric analysis relative to control
- MEASUREMENT PARAMETERS: Microsome
- Sequence (P28845 whole entry, looked up): as the sequence (P28845 whole entry) above
PROPERTY MEASURED: inhibition (%)

I. C=CCOc1ccc(/C=C/C(=O)/C=C/c2ccc(OCC=C)cc2)cc1
II. COc1cc(/C=C/C(=O)/C=C/c2cc(OC)c(OC)c(OC)c2)cc(OC)c1OC
Exam item: Sort I and II by inhibition descending and give the first. State your choice using its label.
Marked response: I
(I: 35%, II: 16%)

----------
- SYSTEM NAME: UniProt P16232
- METHOD NOTES: Inhibition of 11beta-HSD1 in Sprague-Dawley rat leydig cells […] relative to control
- MEASUREMENT PARAMETERS: 100 uM
PROPERTY MEASURED: inhibition (%)

Previously resolved entries follow.
Exam item: Suppose we examine the molecule "O=C1/C(=C/c2cccc(C(F)(F)F)c2F)CC/C1=C\c1cccc(C(F)(F)F)c1F" ; what inhibition value has been reported?
Marked response: 22

Exam item: Follow-up item: "CN(C)c1ccc(/C=C2\CCC/C(=C\c3ccc(N(C)C)cc3)C2=O)cc1"
Marked response: 37

Exam item: Follow-up item: COc1cc(/C=C2\CCC/C(=C\c3ccc(OC4CCCCO4)c(OC)c3)C2=O)ccc1OC1CCCCO1 (stereo not given)
Marked response: 8

Exam item: Follow-up item: "O=C1/C(=C/c2ccc(O)cc2)CC/C1=C\c1ccc(O)cc1"
Marked response: 21

Exam item: Follow-up item: "CN(C)c1ccc(/C=C2\CC/C(=C\c3ccc(N(C)C)cc3)C2=O)cc1"
Marked response: 13

Exam item: Follow-up item: "CN(C)c1ccc(/C=C/C(=O)/C=C/c2ccc(N(C)C)cc2)cc1"
Marked response: 10

I. C=CCOc1ccc(/C=C/C(=O)/C=C/c2ccc(OCC=C)cc2)cc1
II. C=CCOc1ccc(/C=C2\CC/C(=C\c3ccc(OCC=C)cc3)C2=O)cc1
III. COc1cc(/C=C2\CCC/C(=C\c3cc(OC)c(OC)c(OC)c3)C2=O)cc(OC)c1OC
Exam item: List from greatest to least inhibition. To answer, arrange all of the labels according to the requested order.
Marked response: III, I, II
(III: 42%, I: 22%, II: 10%)

----------
- SYSTEM NAME: 11-beta-hydroxysteroid dehydrogenase type 2 (Rattus norvegicus)
- Sequence (whole entry): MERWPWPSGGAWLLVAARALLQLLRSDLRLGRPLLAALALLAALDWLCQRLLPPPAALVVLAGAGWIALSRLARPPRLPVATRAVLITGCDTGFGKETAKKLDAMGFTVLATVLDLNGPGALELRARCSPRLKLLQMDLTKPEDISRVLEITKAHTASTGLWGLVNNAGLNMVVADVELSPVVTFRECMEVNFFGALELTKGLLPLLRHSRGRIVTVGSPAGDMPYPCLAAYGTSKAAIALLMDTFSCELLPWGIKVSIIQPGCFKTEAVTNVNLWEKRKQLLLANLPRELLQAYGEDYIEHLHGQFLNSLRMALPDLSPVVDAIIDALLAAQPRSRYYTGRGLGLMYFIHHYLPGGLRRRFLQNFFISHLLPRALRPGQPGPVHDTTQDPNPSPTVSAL
- METHOD NOTES: Inhibition of 11beta-HSD2 in rat kidney microsomes using [3H]-CORT as substrate assessed as formation of 11-DHC at 100 uM after 30 mins by radiometric analysis relative to control
- MEASUREMENT PARAMETERS: Microsome
PROPERTY MEASURED: inhibition (%)

Previously resolved entries follow.
Exam item: Suppose we examine the compound "O=C1/C(=C/c2ccccc2Br)CCC/C1=C\c1ccccc1Br" ; what inhibition value has been reported?
Marked response: 39

Exam item: Follow-up item: "CN(C)CCCOc1ccc(/C=C2\CC/C(=C\c3ccc(OCCCN(C)C)cc3)C2=O)cc1"
Marked response: 12

Exam item: Follow-up item: "C=CCOc1ccc(/C=C2\CC/C(=C\c3ccc(OCC=C)cc3)C2=O)cc1"
Marked response: 15

Exam item: Follow-up item: "O=C(/C=C/c1ccccc1Br)/C=C/c1ccccc1Br"
Marked response: 39

Exam item: Follow-up item: "C=CCOc1ccc(/C=C/C(=O)/C=C/c2ccc(OCC=C)c(OC)c2)cc1OC"
Marked response: 19

a. C=CCOc1ccc(/C=C2\CC/C(=C\c3ccc(OCC=C)c(OC)c3)C2=O)cc1OC
b. CN(C)c1ccc(/C=C2\CC/C(=C\c3ccc(N(C)C)cc3)C2=O)cc1
Exam item: Problem: Given the entries a and b , determine which has the lower reported inhibition. State your choice using its label.
Marked response: a
(a: 0%, b: 1%)

A. O=C1/C(=C/c2cccc(Br)c2)CC/C1=C\c1cccc(Br)c1
B. COc1cc(/C=C2\CC/C(=C\c3ccc(O)c(OC)c3)C2=O)ccc1O
C. O=C1/C(=C/c2ccc(O)cc2)CC/C1=C\c1ccc(O)cc1
Exam item: List from greatest to least inhibition. To answer, arrange all of the labels according to the requested order.
Marked response: B, C, A
